Quick list: activity (max response) per entry.
measurement-protocol: Cellular viability qHTS for adrenocortical cancer (ACC) cell line SW-13 (AID 1963989);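 note: cells grown in serum-free medium with ITS supplement; % is set by controls: 0 for no effect and ±100 for the full control effect; nearly all actives have a fitted effect of over 65% in size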
condition-set: SW-13 ACC cells viability, CellTiter-Glo, 48 h; hits give low values
Results filed as inconclusive are left out.

- compound-structure: "Cn1cc(/C=C/C(=O)c2cccc(F)c2)cc1/C=C/C(=O)NO"
  unit-descriptor: "%"
  activity (max response): 9.4
- compound-structure: "COc1cc(-c2ccc(=O)[nH]n2)ccc1OC(F)F"
  unit-descriptor: "%"
  activity (max response): -6.02
- compound-structure: "CS(=O)(=O)c1ccc([C@@H](O)[C@@H](CF)NC(=O)C(Cl)Cl)cc1"
  unit-descriptor: "%"
  activity (max response): -12.7
- compound-structure: "Clc1cccc(-c2ccc(-c3nnc(CCCc4ccc5cccnc5n4)o3)cc2)c1"
  unit-descriptor: "%"
  activity (max response): -11.9
- compound-structure: "CC(=O)O/N=C1\\C(=O)N(Cc2cc(Cl)ccc2Cl)c2ccc(Cl)cc21"
  unit-descriptor: "%"
  activity (max response): -2.12
- compound-structure: "CCc1c(O)cc(O)c(C(=O)c2ccc(OCCN3CCOCC3)c(OC)c2)c1CC(=O)N(CCOC)CCOC"
  unit-descriptor: "%"
  activity (max response): -6.69
- compound-structure: "CCN(C(=O)c1ccccc1OC)c1cc2c(cc1N1CCNC[C@H]1C)n(C)c(=O)n2C"
  unit-descriptor: "%"
  activity (max response): 1.48
- compound-structure: "CC(C)C(=O)Nc1ccc([N+](=O)[O-])c(C(F)(F)F)c1"
  unit-descriptor: "%"
  activity (max response): 15.5
- compound-structure: "CCOc1ccccc1OCCN[C@H](C)Cc1ccc(OC)c(S(N)(=O)=O)c1"
  unit-descriptor: "%"
  activity (max response): 2.5
- compound-structure: "CCC[C@H](N[C@@H](C)C(=O)N1[C@@H]2CCCC[C@H]2C[C@H]1C(=O)O)C(=O)OCC"
  unit-descriptor: "%"
  activity (max response): 2.75

Hello, the source for this data is PubChem BioAssay (NCATS), in case you need it.
